Recorded values, source paper PMC3418449.

target: GRK2 (S670A), flow cytometry and crystallography (bovine, UniProt P21146 1-689, S670A); assay: flow cytometry bead binding
Sequence (P21146 whole entry S670A): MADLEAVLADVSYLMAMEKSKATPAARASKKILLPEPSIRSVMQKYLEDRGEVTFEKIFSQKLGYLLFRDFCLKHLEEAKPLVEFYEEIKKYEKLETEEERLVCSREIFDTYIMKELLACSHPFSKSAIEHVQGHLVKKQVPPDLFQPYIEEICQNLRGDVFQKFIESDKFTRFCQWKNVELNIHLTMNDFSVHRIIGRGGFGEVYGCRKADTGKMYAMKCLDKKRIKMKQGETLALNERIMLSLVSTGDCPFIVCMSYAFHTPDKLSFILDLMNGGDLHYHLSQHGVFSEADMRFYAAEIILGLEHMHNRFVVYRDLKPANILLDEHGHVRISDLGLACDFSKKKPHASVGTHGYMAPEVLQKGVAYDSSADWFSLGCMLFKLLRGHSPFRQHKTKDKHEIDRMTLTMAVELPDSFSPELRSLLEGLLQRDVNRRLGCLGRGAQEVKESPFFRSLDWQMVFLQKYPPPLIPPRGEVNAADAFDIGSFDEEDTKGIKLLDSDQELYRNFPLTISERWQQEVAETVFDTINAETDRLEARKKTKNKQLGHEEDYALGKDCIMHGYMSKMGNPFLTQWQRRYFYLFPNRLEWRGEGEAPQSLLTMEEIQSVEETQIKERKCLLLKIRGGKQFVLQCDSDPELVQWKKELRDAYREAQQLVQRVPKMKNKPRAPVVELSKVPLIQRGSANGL
Measure: Kd (nM)
Give bare numbers, in nM.

Kd lookup needed for CCAUACGGGAGAGAAACU (ssRNA) [C13.18] , thanks.
35
